- Tested Target: T1, human CRH receptor type 2 (human, UniProt Q13324 1-411)
- T1 sequence (looked up): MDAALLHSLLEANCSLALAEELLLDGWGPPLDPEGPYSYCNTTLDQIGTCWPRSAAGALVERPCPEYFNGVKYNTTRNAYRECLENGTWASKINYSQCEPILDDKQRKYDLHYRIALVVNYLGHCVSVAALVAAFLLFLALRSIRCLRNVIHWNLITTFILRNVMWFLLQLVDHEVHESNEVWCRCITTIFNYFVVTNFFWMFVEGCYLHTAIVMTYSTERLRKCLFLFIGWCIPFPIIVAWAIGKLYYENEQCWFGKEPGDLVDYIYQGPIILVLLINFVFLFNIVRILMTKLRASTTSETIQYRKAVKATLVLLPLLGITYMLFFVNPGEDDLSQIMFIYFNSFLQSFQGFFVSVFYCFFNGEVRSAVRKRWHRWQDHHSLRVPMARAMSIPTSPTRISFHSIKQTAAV
- Test: cell-based or functional assay
No end group written: not given here.
Recorded Metric: Log DR against h-SCP, cAMP (log10 ratio)
State the answer as a number, implicitly in log10 ratio.

Inquiry: Log DR against h-SCP, cAMP for CKFTLSLDVPTNIMNLLFNIAKAKNLRAQAAANAHLMAQI-NH2 [Cys-variant CRHR2 peptide agonist, SEQ ID NO: 2] ?
Reply text: 0.72

Inquiry: Log DR against h-SCP, cAMP for TKFTLSLDVPTNIMNLLFNIAKAKNLRAQAAANAHLMCQI-NH2 [Cys-variant CRHR2 peptide agonist, SEQ ID NO: 39] ?
Reply text: 0.41

Inquiry: Log DR against h-SCP, cAMP for TKFTLSLDVPTNIMNLLFNIAKAKNLRAQAAANACLMAQI-NH2 [Cys-variant CRHR2 peptide agonist, SEQ ID NO: 36] ?
Reply text: 0.42
